System: rhesus monkey PBMCs
measurement_description: Cytokine production by rhesus monkey PBMC (ELISA)
Assay type: cell-based
experimental_setup: PBMC of 4 healthy rhesus monkeys, 100 μg/ml, 48 h
parameter_measured: TNF-alpha fold increase: mean +/− SD

A selection of reference data follows.
| sequence_record | endpoint_value |
| --- | --- |
| CTGTCT [SEQ ID NO:36] | 15.3 +/− 3.6 fold increase |
| GGAAGG (unmodified DNA) [SEQ ID NO:42] | 16.5 +/− 4.5 fold increase |
| GGGTGG [SEQ ID NO:25] | 12.5 +/− 5.2 fold increase |
| ATGTAT (unmodified DNA) [SEQ ID NO:30] | 6.9 +/− 4.7 fold increase |
| TGTGTG [SEQ ID NO:9] | 14.3 +/− 6.3 fold increase |

Now let's try a different one.
Form: sequence = TTGTTT [SEQ ID NO:26] ; TNF-alpha fold increase: mean +/− SD = 2.1 +/− 1.0 fold increase

* * *

↑ IL-12 (fold increase treated vs control cells) for assorted substances
Test system: THP-1 human acute monocytic leukemia cells
measurement_description: Cytokine production by THP-1 cells (ELISA)
Format: cell-based
experimental_setup: THP-1, 1×10^6 cells, 100 μg/ml, 48 h; p70 complex and free p40
Field format: number, assumed x, no unit text.

Guide cases for ↑ IL-12 (fold increase treated vs control cells), answers given:
| substance | target_entity | uom | endpoint_value |
| --- | --- | --- | --- |
| GsGsGoToGsGs | THP-1 human acute monocytic leukemia cells | x | 0 |
| CGGTGC [SEQ ID NO:38] | THP-1 human acute monocytic leukemia cells | x | 0.2 |
| CGACTACAACGGCTGGGATATCAACACCCCGGCGTTCGAGTGGTA (unmodified DNA) [BCG ALPHA-1, reference compound] | THP-1 human acute monocytic leukemia cells | x | 1.1 |
| CCGTCC [SEQ ID NO:28] | THP-1 human acute monocytic leukemia cells | x | 3.8 |
| AAGTAA [SEQ ID NO:27] | THP-1 human acute monocytic leukemia cells | x | 6.0 |
| GGGTCT [SEQ ID NO:33] | THP-1 human acute monocytic leukemia cells | x | 1.2 |
| ACGCCGACGTCGTCTGTGGTGGGGTGTCTACCGCCAACGCGACGG (unmodified DNA) [BCG M-3, reference compound] | THP-1 human acute monocytic leukemia cells | x | 1.6 |
| TTGTGG [SEQ ID NO:39] | THP-1 human acute monocytic leukemia cells | x | 0.0 |
| TGTGTG [SEQ ID NO:9] | THP-1 human acute monocytic leukemia cells | x | 1.8 |
| ATGTAT (unmodified DNA) [SEQ ID NO:30] | THP-1 human acute monocytic leukemia cells | x | 4.8 |

Next substance, please.
Observed ↑ IL-12 (fold increase treated vs control cells) on THP-1 human acute monocytic leukemia cells, entry CCGTGG [SEQ ID NO:34] , equals 0.0

* * *

System: Jurkat human leukemia T cells
measurement_description: Cell cycle stage in Jurkat cells (propidium iodide flow cytometry)
Type: cell-based
experimental_setup: Jurkat, 24 h, 100 μg/ml
% of cells in phase: SL values for the sequences below.
Note: unit % is implicit; provide only the numeric part.

Illustrative cases are given below, each with its answer.
| sequence_record | parameter_measured | endpoint_value |
| --- | --- | --- |
| GGGTGG [SEQ ID NO:25] | % of cells in phase: SL | 10.7 |
| AAAGAGGGGCATGACCCGGTGCGGGGGTTCTTGCACTCGGCATAG (unmodified DNA) [BCG A-1, reference compound] | % of cells in phase: SL | 14.0 |
| GTGTGT [SEQ ID NO:10] | % of cells in phase: SL | 10.2 |
| AACCACAAGCCCAAC (DNA, backbone not given here) [SEQ ID NO:67] | % of cells in phase: SL | 9.5 |

Reported % of cells in phase: SL for AGGTGA [SEQ ID NO:31] was 8.2

% of cells in phase: SL recorded for this sequence, GGAAGG (unmodified DNA) [SEQ ID NO:42] , is 5.8

The sequence GTGTGTGTGTGTGTGTGTGTGTGTGTG [SEQ ID NO:1] (chemistry not given here) showed % of cells in phase: SL equal to 9.3

% of cells in phase: SL recorded for this sequence, GGGGGGGTGGGGGGGTGGGGGGGTGGG (unmodified DNA) [SEQ ID NO:4] , is 11.1

Value of % of cells in phase: SL reported for the sequence TTGTTT [SEQ ID NO:26] is 10.7

% of cells in phase: SL recorded for this sequence, GGGGGTGGGGGTGGGGGTGGGGGTGGG (unmodified DNA) [SEQ ID NO:3] , is 9.7

* * *

Test system: PC-3 human prostate cancer cells
measurement_description: Inhibition of PC-3 cell proliferation (MTT)
Assay type: cell-based
experimental_setup: 100 μg/ml, 48 h, 5×10^5 cells/ml
parameter_measured: % INHIBITION of PC-3 human prostate cancer cell proliferation (%)
State the answer as a number, implicitly in %.

Consider the reported % INHIBITION of PC-3 human prostate cancer cell proliferation for these sequences:
| sequence_record | target_entity | endpoint_value |
| --- | --- | --- |
| GGTGGG [SEQ ID NO:24] | PC-3 human prostate cancer cells | 26 |
| TGTGTG [SEQ ID NO:9] | PC-3 human prostate cancer cells | 16 |
| TTGTTT [SEQ ID NO:26] | PC-3 human prostate cancer cells | 18 |
| TTTGTT [SEQ ID NO:23] | PC-3 human prostate cancer cells | 14 |

Given the sequence GTGTGT [SEQ ID NO:10] and test system PC-3 human prostate cancer cells, the measured % INHIBITION of PC-3 human prostate cancer cell proliferation is 37

Value sought: % INHIBITION of PC-3 human prostate cancer cell proliferation, system PC-3 human prostate cancer cells, item GGGTGG [SEQ ID NO:25] . Result: 38

* * *

System: Jurkat human leukemia T cells
measurement_description: NuMA release into supernatant (ELISA)
Assay type: cell-based
experimental_setup: Jurkat 1×10^6/ml
Please assign NOT MET whenever % NUMA RELEASED is at or above 90%, and MET whenever it is below.

These solved cases illustrate the format of a correct answer.
| sequence_record | label_value |
| --- | --- |
| GGGGGTGGGGGTGGGGGTGGGGGTGGG (unmodified DNA) [SEQ ID NO:3] | NOT MET |
| GGGTGG [SEQ ID NO:25] | NOT MET |
| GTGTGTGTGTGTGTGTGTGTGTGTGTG [SEQ ID NO:1] (chemistry not given here) | MET |

Next, consider the following sequence.
-- ask I wonder whether GGGTGGGTGGGTGGGTGGGTGGGTGGG [SEQ ID NO:2] has % NUMA RELEASED below 90%. Can you tell?
-- reply MET

* * *

# Lookup of reported IL-6 fold increase: mean +/− SD keyed by entry
Tested on: human peripheral blood mononuclear cells
measurement_description: Cytokine production by human PBMC (ELISA)
Type: cell-based
experimental_setup: PBMC of 7 healthy humans, 100 μg/ml, 48 h
Method: Unless stated otherwise, 1×10^6 cells were incubated with 100 μg/ml of each of the sequences tested for 48 h at 37° C. in 5% CO2. Production of cytokines IL-6, IL-10, IL-12, IL-1beta and TNF-alpha was determined in pg/ml in 100 μl of culture supernatant using the appropriate commercial ELISA (BioSource, Camarillo Calif.). […] Results are expressed as the “fold” (×) increase in cytokine production by treated cells compared to control cells. […]

| sequence_record | endpoint_value |
| --- | --- |
| TGTGTG [SEQ ID NO:9] | 8.3 +/− 12.8 fold increase |
| GGGTGG [SEQ ID NO:25] | 20.9 +/− 18.0 fold increase |
| AAGTAA [SEQ ID NO:27] | 9.6 +/− 7.3 fold increase |

Known value: human peripheral blood mononuclear cells IL-6 fold increase: mean +/− SD of the sequence CCGTCC [SEQ ID NO:28] equals 10.4 +/− 13.0 fold increase

Observed IL-6 fold increase: mean +/− SD on human peripheral blood mononuclear cells, entry GGTTGG [SEQ ID NO:41] , equals 7.8 +/− 12.8 fold increase

Query GGGCGG (unmodified DNA) [SEQ ID NO:46] on human peripheral blood mononuclear cells; IL-6 fold increase: mean +/− SD returned: 15.8 +/− 16.2 fold increase

Field IL-6 fold increase: mean +/− SD (system: human peripheral blood mononuclear cells) for entry TTTGTT [SEQ ID NO:23] = 11.8 +/− 9.0 fold increase

IL-6 fold increase: mean +/− SD of GTGTGTGTGTGT [SEQ ID NO:14] , assay on human peripheral blood mononuclear cells, is 2.0 +/− 1.5 fold increase

The reported IL-6 fold increase: mean +/− SD value, human peripheral blood mononuclear cells, for TGTGTGTGTGTG [SEQ ID NO:13] reads 12.1 +/− 6.5 fold increase

The measured IL-6 fold increase: mean +/− SD that TTGTTT [SEQ ID NO:26] showed for human peripheral blood mononuclear cells is 5.8 +/− 8.0 fold increase

IL-6 fold increase: mean +/− SD value, target or system human peripheral blood mononuclear cells, for GTGTGT [SEQ ID NO:10] : 9.8 +/− 14.2 fold increase

Hey, human peripheral blood mononuclear cells data for GGCCGG [SEQ ID NO:43] : IL-6 fold increase: mean +/− SD came out at 14.9 +/− 10.2 fold increase

The measured IL-6 fold increase: mean +/− SD that GGAAGG (unmodified DNA) [SEQ ID NO:42] showed for human peripheral blood mononuclear cells is 11.8 +/− 5.8 fold increase

Reported human peripheral blood mononuclear cells IL-6 fold increase: mean +/− SD for item TGGTTG [SEQ ID NO:29] was 9.3 +/− 12.1 fold increase

Let me check: TCGTTC [SEQ ID NO:37] , system human peripheral blood mononuclear cells, measured IL-6 fold increase: mean +/− SD is 7.5 +/− 9.8 fold increase
